target_system: KRAS G12D/RAF1 (Homo sapiens, UniProt P01116, G12D)
Construct: His6-MBP (N, cleaved yes); made in house; host or cells: E. coli
Sequence (P01116 with tags, fused parts or gaps isoform P01116-2 G12D): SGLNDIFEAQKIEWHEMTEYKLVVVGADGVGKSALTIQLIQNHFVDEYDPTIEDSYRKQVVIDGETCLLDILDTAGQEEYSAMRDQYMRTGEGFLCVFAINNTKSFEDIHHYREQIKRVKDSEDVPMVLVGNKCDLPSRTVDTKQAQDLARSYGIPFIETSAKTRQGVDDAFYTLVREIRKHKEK
experiment_summary: Protein-protein interaction (PPI) HTRF assay KRAS G12D/RAF1
Assay type: binding
experimental_setup: Table 4
assay_metric: IC50

- entry_smiles: "N#Cc1c(N2C[C@H]3CC[C@@H](C2)N3)nc(OCc2n[nH]cc2C(F)(F)F)nc1N1CC2(CCc3sc(N)c(C#N)c32)C1"
  reported_result: "10 to 100 µM"
- entry_smiles: "N#Cc1c(N2C[C@H]3CC[C@@H](C2)N3)nc(OCC2(CN3C[C@@H](F)[C@@H](F)C3)CC2)nc1N1CC2(CCc3sc(N)c(C#N)c32)C1"
  reported_result: "> 100 µM"
- entry_smiles: "C[C@@H]1COCCN1CC1(COc2nc(N3C[C@H]4CC[C@@H](C3)N4)c(C#N)c(N3CC4(CCc5sc(N)c(C#N)c54)C3)n2)CC1"
  reported_result: "10 to 100 µM"
- entry_smiles: "Cc1noc(-c2cc3n(n2)CCCN(c2nc(OC[C@@]45CCCN4C[C@H](F)C5)nc(N4CC5(CCc6sc(N)c(C#N)c65)C4)c2C#N)C3)n1"
  reported_result: "10 to 100 µM"

----------
target_system: GST-tagged KRAS-G12D (2-169) (Homo sapiens, UniProt P01116, G12D)
Construct: GST-tagged KRAS-G12D (2-169, Reaction Biology, MSC-11-539); purchased Reaction Biology MSC-11-539 (KRAS G12D); MSC-11-502 (SOS1cat)
Sequence (P01116 2-169 isoform P01116-2 G12D): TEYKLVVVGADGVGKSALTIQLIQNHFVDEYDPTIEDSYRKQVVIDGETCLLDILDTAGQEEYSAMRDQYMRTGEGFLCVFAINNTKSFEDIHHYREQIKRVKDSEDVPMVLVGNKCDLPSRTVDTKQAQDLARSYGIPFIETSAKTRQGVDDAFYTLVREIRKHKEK
experiment_summary: Nucleotide exchange assay (NEA), SOS-mediated, HTRF, KRAS G12D
Format: biochemical
experimental_setup: Table 4; IC50 extracted at 30 min
pIC50: −log10 of the molar value.
In this section, each of the compounds is paired with its reported pIC50.
assay_metric: pIC50

- compound: "N#Cc1c(N2C[C@H]3CC[C@@H](C2)N3)nc(OCC2(CN3CCOCC3)CC2)nc1N1CC2(CSc3sc(N)c(C#N)c32)C1"
  target_system: "GST-tagged KRAS-G12D (2-169) (Homo sapiens, UniProt P01116, G12D)"
  assay_metric: "pIC50"
  reported_result: "> 8.00"
- compound: "N#Cc1c(N2C[C@H]3CC[C@@H](C2)N3)nc(OCC2(CN3CCC(F)(F)C3)CC2)nc1N1CC2(CCc3sc(N)c(C#N)c32)C1"
  target_system: "GST-tagged KRAS-G12D (2-169) (Homo sapiens, UniProt P01116, G12D)"
  assay_metric: "pIC50"
  reported_result: "> 8.00"
- compound: "N#Cc1c(N2C[C@H]3CC[C@@H](C2)N3)nc(OCc2cn[nH]n2)nc1N1CC2(CCc3sc(N)c(C#N)c32)C1"
  target_system: "GST-tagged KRAS-G12D (2-169) (Homo sapiens, UniProt P01116, G12D)"
  assay_metric: "pIC50"
  reported_result: "7.00 to 8.00"
- compound: "CC(=O)c1nn2c(c1Cl)CN(c1nc(OC[C@@]34CCCN3C[C@H](F)C4)nc(N3CC4(CCc5sc(N)c(C#N)c54)C3)c1C#N)CCC2"
  target_system: "GST-tagged KRAS-G12D (2-169) (Homo sapiens, UniProt P01116, G12D)"
  assay_metric: "pIC50"
  reported_result: "> 8.00"
- compound: "N#Cc1c(N2CCCC(=O)CC2)nc(OC[C@@]23CCCN2C[C@H](F)C3)nc1N1CC2(CCc3sc(N)c(C#N)c32)C1"
  target_system: "GST-tagged KRAS-G12D (2-169) (Homo sapiens, UniProt P01116, G12D)"
  assay_metric: "pIC50"
  reported_result: "7.00 to 8.00"
- compound: "CC1CC2(CN(c3nc(OCC4(CN5CCOCC5)CC4)nc(N4C[C@H]5CC[C@@H](C4)N5)c3C#N)C2)c2c1sc(N)c2C#N (stereo partly drawn)"
  target_system: "GST-tagged KRAS-G12D (2-169) (Homo sapiens, UniProt P01116, G12D)"
  assay_metric: "pIC50"
  reported_result: "> 8.00"
- compound: "CC1CC2(CN(c3nc(OC[C@@]45CCCN4C[C@H](F)C5)nc(N4CCCn5nc(C(=O)N(C)C)c(Cl)c5C4)c3C#N)C2)c2c1sc(N)c2C#N (stereo partly drawn)"
  target_system: "GST-tagged KRAS-G12D (2-169) (Homo sapiens, UniProt P01116, G12D)"
  assay_metric: "pIC50"
  reported_result: "> 8.00"
- compound: "N#Cc1c(N2CCC=CCC2)nc(OC[C@@]23CCCN2C[C@H](F)C3)nc1N1CC2(CCc3sc(N)c(C#N)c32)C1"
  target_system: "GST-tagged KRAS-G12D (2-169) (Homo sapiens, UniProt P01116, G12D)"
  assay_metric: "pIC50"
  reported_result: "7.00 to 8.00"
- compound: "N#Cc1c(N2CCCC3(C2)NC(=O)NC3=O)nc(OC[C@@]23CCCN2C[C@H](F)C3)nc1N1CC2(CCc3sc(N)c(C#N)c32)C1 (stereo partly drawn)"
  target_system: "GST-tagged KRAS-G12D (2-169) (Homo sapiens, UniProt P01116, G12D)"
  assay_metric: "pIC50"
  reported_result: "> 8.00"

These data points were gathered from patent US12145947B2.
